- System: MDA-MB-231 breast
- TEST_NAME: NCI tumour cell line growth inhibition, 48 h
Each entry below carries its reported TGI.

| COMPOUND | TGI |
| --- | --- |
| N#Cc1ccc(NC(=NCC(=O)O)Nc2ccc3ccccc3c2)cc1 | > 10 µM |
| C[C@H]1C(=O)C2=C[C@H]1CCC(=O)[C@]1(C)CCCC(C)(C)[C@H]1C[C@H]2O | 20.2 µM |

[in] Given O=C(NC(c1ccccc1)C(O)C(=O)OCc1ccc2c(c1)C(=O)c1ccccc1C2=O)c1ccccc1 (stereo not given) , respond with its TGI.
[out] 30.6 µM

* * *

- System: HOP-62 NSCLC
- TEST_NAME: NCI tumour cell line growth inhibition, 48 h
REPORTED_METRIC: TGI

# annotated cases, reported TGI shown
| MOLECULE | REPORTED_METRIC | OBS_VALUE |
| --- | --- | --- |
| COc1c(-c2ccc3c(c2)OCO3)oc2cc3c(c(OC)c2c1=O)OCO3 | TGI | 34.9 µM |
| O=c1c2ccccc2nc(-c2ccccc2Cl)n1NC1OC(CO)C(O)C(O)C1O (stereo unspecified) | TGI | > 100 µM |
| COc1cc(C2c3cc4c(c(O)c3C(=O)C3CCC(=O)N32)OCO4)cc(OC)c1OC (stereo unspecified) | TGI | > 100 µM |
| Clc1ccc(CCN2CCN(CCCc3ccccc3)CC2)cc1Cl | TGI | 35.8 µM |
| CC(C)(C)C(=O)C(C#N)C(=O)C(C)(C)C | TGI | > 100 µM |
| COC(=O)[C@@H](C)C[C@H](Cc1ccccc1)NC(=O)c1cccc([C@@H](C[C@H](C(C)C)N(C)C(=O)[C@@H](NC(=O)[C@H]2CCCCN2C)C(C)C)OC(C)=O)n1 | TGI | > 16.7 µM |
| CN1CCN(Cc2ccc(NC(=O)c3cncc(C#Cc4c(N)ncc5ccc(F)cc45)c3)cc2C(F)(F)F)CC1 | TGI | 4.67 µM |
| O=C1c2ccccc2CC1C1(O)C(=O)Nc2c(Cl)cc(Cl)cc21 (stereo unspecified) | TGI | > 100 µM |
| Cc1ccc(S(=O)(=O)NC2(C=O)CCC(C(C)(C)C)CC2)cc1 (stereo unspecified) | TGI | > 100 µM |
| COc1cc(NS(C)(=O)=O)ccc1N1Cc2cnc3ccc4[nH]ccc1c4c23 | TGI | > 100 µM |

[in] Given Cc1nn(-c2ccccc2)c2ncc3c(c12)C(=O)N(Cc1ccccc1)C3=O , respond with its TGI.
[out] 13.8 µM

[in] Given COc1cc(OC)c(-c2oc3ccccc3c(=O)c2O)c(OC)c1 , respond with its TGI.
[out] > 31.5 µM

[in] Given O=[N+]([O-])c1ccc(-c2ccc(C3=Nn4c(nnc4-c4ccc(Cl)cc4)SC3)o2)cc1 , respond with its TGI.
[out] > 76.3 µM

[in] Given COc1cc2c(cc1Nc1nc(Nc3ccsc3C(N)=O)c3cc[nH]c3n1)N(C(=O)CN(C)C)CCC2 , respond with its TGI.
[out] 6.84 µM

[in] Given CCCCCCCCCCCCOC1C(C(COC2OC(C(O)CO)C3OC(C)(C)OC23)OC(=O)Nc2ccc([N+](=O)[O-])cc2)OC2OC(C)(C)OC21 (stereo unspecified) , respond with its TGI.
[out] 3.8 µM

[in] Given CC(=O)/C=C\C(=O)NNS(=O)(=O)c1ccc(C)cc1 , respond with its TGI.
[out] > 100 µM

[in] Given NC(=O)NOCC1NC(=O)NC1=O (stereo unspecified) , respond with its TGI.
[out] > 100 µM

[in] Given C/C=C\C(C)=C/C(C)C(=O)CC(O)CC1CC(=O)NC(=O)C1 (stereo unspecified) , respond with its TGI.
[out] > 100 µM

[in] Given COCN1C(=O)[C@@H]2C[C@@H](OC/C=C/CBr)CN2C(=O)c2ccccc21 , respond with its TGI.
[out] 54.6 µM

[in] Given COc1ccc2[nH]c3c(C)c4ccnc(NCCCN(C)CCCNC(=O)NCCCN(C)CCCNc5nccc6c(C)c7[nH]c8ccc(OC)cc8c7c(C)c56)c4c(C)c3c2c1 , respond with its TGI.
[out] 2.11 µM

[in] Given Cc1ccc(SCN2CCCCC2)cc1 (tested in a mixture with another compound) , respond with its TGI.
[out] 37.7 µM

[in] Given Cc1cn2cc(-c3ccncc3)nc2s1 , respond with its TGI.
[out] > 100 µM

[in] Given O=C(CN1C(=O)c2ccccc2C1=O)NC1(C(=O)O)CCCC1 , respond with its TGI.
[out] > 100 µM

[in] Given COc1ccc(/C=C2\CN(Cc3cn(CCCNc4ccnc5cc(Cl)ccc45)nn3)C/C(=C\c3ccc(OC)cc3)C2=O)cc1 , respond with its TGI.
[out] 35.5 µM

[in] Given O=C(Cc1nc2ccccc2s1)C(=O)Nc1ccccc1C(F)(F)F , respond with its TGI.
[out] > 100 µM

[in] Given N#C/C(=C/NC(=S)Nc1ccc(S(N)(=O)=O)cc1)C(N)=O , respond with its TGI.
[out] > 100 µM

* * *

- Tested on: COLO 205 colon
- TEST_NAME: NCI tumour cell line growth inhibition, 48 h; in the data active means GI50 below about 0.43 µM; inactive means the rest
Output constraint: value belongs to 1.0 for active, 0.0 for inactive

Previously resolved entries follow.
| COMPOUND | ASSIGNED_LABEL |
| --- | --- |
| Cn1cc(C2=C(c3cn(CCCSC(=N)N)c4ccccc34)C(=O)NC2=O)c2ccccc21 | 0.0 |
| CCN(CC)CCC(CNc1c2ccc(Cl)cc2nc2ccc(OC)cc12)c1ccccc1 (centres undefined) | 0.0 |
| Cc1nn(-c2ccccc2)c2ncc3c(c12)C(=O)N(Cc1ccccc1)C3=O | 0.0 |
| O=C1/C(=C/c2ccc([N+](=O)[O-])s2)Oc2ccc(Cl)cc21 | 0.0 |
| COc1cc2c(c(OC)c1OC)-c1c(c3ccc([N+](=O)[O-])cc3c(=O)n1CCCN=[N+]=[N-])C2=O | 0.0 |
| CCS(=O)(=O)Nc1ccc(Oc2ccc(F)cc2F)c(-c2cn(C)c(=O)c3[nH]ccc23)c1 | 1.0 |

[in] For this compound, state the assay outcome: CCOC(=O)c1ccccc1NC(c1ccccc1)c1ccc2cccnc2c1O (centres undefined)
[out] 0.0

[in] For this compound, state the assay outcome: COc1ccc(/C=C2\CC(C)CC3C2=NN(C(C)=O)C3c2ccc(OC)c(OC)c2)cc1OC (centres undefined)
[out] 0.0

[in] For this compound, state the assay outcome: COc1ccc2c(c1)CCC1C2CCC2(C)C1CC[C@@]2(O)CNC(=O)/C=C/c1ccc(O)c(O)c1 (some centres undefined)
[out] 0.0

* * *

- Test system: SNB-78 CNS
- TEST_NAME: NCI tumour cell line growth inhibition, 48 h
Each entry below carries its reported TGI.

| COMPOUND | TGT | TGI |
| --- | --- | --- |
| COc1cc(C2C(C(=O)Nc3ccc(Cl)c(Cl)c3)=C(C)NC(C)=C2C(=O)Nc2ccc(Cl)c(Cl)c2)ccc1O | SNB-78 CNS | 53.5 µM |
| COc1nc(NC2OCC(OC(C)=O)C(OC(C)=O)C2OC(C)=O)c(N=C(C)C(C)=O)c(=O)n1C (configuration not stated) | SNB-78 CNS | > 100 µM |
| CC[N+]1(C)CCC(O)(/C=C/c2ccccc2)C(C(=O)/C=C/c2ccccc2)C1 (configuration not stated) | SNB-78 CNS | > 78.7 µM |

[in] Given COc1ccc(C2Oc3cc(OC)c(O)cc3[C@@H]2C)cc1 (some centres not stated) , respond with its TGI.
[out] > 100 µM

[in] Given CCN(CC)CC(C(=O)Nc1c(C)cccc1C)/C(C)=N/NC(N)=S (configuration not stated) , respond with its TGI.
[out] > 100 µM

[in] Given Cc1ccc(S(=O)(=O)NC2(C=O)CCC(C(C)(C)C)CC2)cc1 (configuration not stated) , respond with its TGI.
[out] > 100 µM

[in] Given COC(=O)C1CCC2(CC1)NC(=O)NC2=O (configuration not stated) , respond with its TGI.
[out] > 100 µM

[in] Given COc1ccccc1C1C(Cl)C(=O)N1NC(=O)Cc1ccccc1 (configuration not stated) , respond with its TGI.
[out] > 100 µM

* * *

- Test system: MCF7 breast
- TEST_NAME: NCI tumour cell line growth inhibition, 48 h
Each entry below carries its reported TGI.

| SMILES_ENTRY | OBS_VALUE |
| --- | --- |
| Cc1cc(N2CCOCC2)nc(N(CCNc2ccnc3cc(Cl)ccc23)Cc2cccs2)n1 | 4.68 µM |
| CC(C)(C)OC(=O)N(CCCN)CCCCN(CCCN)C(=O)OC(C)(C)C | > 100 µM |
| COC(=O)C(I(OS(=O)(=O)c1ccc(C)cc1)c1ccccc1)=P(c1ccccc1)(c1ccccc1)c1ccccc1 | 94.5 µM |
| CN(C)CCCn1c2c(c3ccncc3c1=O)C(=O)c1ccccc1-2 | 14 µM |
| COC(=O)C1(C(=O)OC)CC2=C(S(=O)(=O)c3ccccc3)C[C@@H](C#N)[C@H]2C1 | > 100 µM |

[in] Given N#C/C(=C/NC(=S)Nc1ccc(S(N)(=O)=O)cc1)C(N)=O , respond with its TGI.
[out] > 100 µM

[in] Given C#Cc1cccc(NC(=O)Nc2cccc(NC(=O)CCl)c2)c1 , respond with its TGI.
[out] > 82.5 µM
